Here the recorded OD450 at 1 nM is given for each entry.
Molecular target: T1, human MSLN-FL-his protein (human, UniProt Q13421 296-580)
T1 construct: also called human MSLN full-length protein; hMSLN-FL-his; not shown: His tag
T1 sequence (Q13421 other isoform, or with tags, fused parts or gaps): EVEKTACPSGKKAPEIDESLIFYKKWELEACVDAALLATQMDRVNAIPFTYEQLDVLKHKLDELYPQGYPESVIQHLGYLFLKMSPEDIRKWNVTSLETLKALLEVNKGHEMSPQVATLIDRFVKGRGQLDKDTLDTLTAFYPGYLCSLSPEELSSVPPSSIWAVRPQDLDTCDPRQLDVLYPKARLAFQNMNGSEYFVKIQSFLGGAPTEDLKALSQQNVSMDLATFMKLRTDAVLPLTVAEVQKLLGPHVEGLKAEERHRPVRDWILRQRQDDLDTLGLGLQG
Assay: ELISA, coated MSLN full-length;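 note: binding of chimeric antibodies to plate-bound antigen, read by TMB colour after acid stop, antibody incubated 2 h at 37 °C, negative control antibody run alongside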
# value in OD450; strip the unit string

// below: answered binders
S009-F2.23.12 (antibody, human IgG1, kappa, V domains shown, Human-murine chimeric antibody, human IgG1/kappa constant regions) VH: QVQLQQPGTELVKPGASVKLSCKASGYTFTNYWMHWVKQRPGQGLEWIGNINPSNGGPYYNERFRSKATLTVDKSSSTAYMQLSSLTSEDSAVYYCARPYYGSSYGYFDYWGQGTTLTVSS VL: DIQMTQSPSSLSASLGGKVTITCKASQDINKYIAWYQHKPGKGPRLLIHYTSELQPGIPSRFSGNGSGRDYSFSISNLEPEDIATYYCLQYANPLRTFGGGTKLEIKR ... 2.21
S009-F2.16.10 (antibody, human IgG1, kappa, V domains shown, Human-murine chimeric antibody, human IgG1/kappa constant regions) VH: QVQLQQPGAELIKPGASVKLSCKASGYTFTSYWMHWVKQRPGQGLEWIGIIHPNIGSTNYNERFKSKATLTVDKSSSTAYMQLSSLTSEDSAVYYCARRSSNYGDWYFDVWGTGTTVTVSS VL: DIVMTQSHRFMSTSVGDRVSITCKASQDVGTSVAWYQQKPGQSPKLLIYWASTQHTGVPDRFTGSGSGTDFTLTINNVQSEDLLDYFCQQYSSYPLTFGAGTKLELKR ... 2.22

Note: attention shifts to another entry.
query: Please supply the value of reported OD450 at 1 nM for the item S009-F2.39.3 (antibody, human IgG1, kappa, V domains shown, Human-murine chimeric antibody, human IgG1/kappa constant regions) VH: QVQLQQPGTELVKPGASVKLSCKASGYTFTNYWMHWVKQRPGQGLEWIGNINPSSGDSYYNERFMSKAKMTVDKSSSTAYMQLSSLTSEDSAVYYCARSGGLWLAFWGPGTLVTVSA VL: DIVMTQSPSSLAMSVGQKVTMSCKSSQTLLNSVSQNNYLAWYQQKPGQSPTLLVYFASTRESGVPDRFIGGGSGTDFTLTISSVQAEDLADYFCQQHYRTPYTFGGGTNLEIKR
result: 1.57
